Target: kappa1 sites (Cavia porcellus, UniProt P41144)
Construct: The brains were then homogenized in 50 mM Tris HCl, buffer pH 7.7, using a Polytron; from tissue; host or cells: guinea pig brain homogenate (membrane pellet)
Sequence (P41144 whole entry): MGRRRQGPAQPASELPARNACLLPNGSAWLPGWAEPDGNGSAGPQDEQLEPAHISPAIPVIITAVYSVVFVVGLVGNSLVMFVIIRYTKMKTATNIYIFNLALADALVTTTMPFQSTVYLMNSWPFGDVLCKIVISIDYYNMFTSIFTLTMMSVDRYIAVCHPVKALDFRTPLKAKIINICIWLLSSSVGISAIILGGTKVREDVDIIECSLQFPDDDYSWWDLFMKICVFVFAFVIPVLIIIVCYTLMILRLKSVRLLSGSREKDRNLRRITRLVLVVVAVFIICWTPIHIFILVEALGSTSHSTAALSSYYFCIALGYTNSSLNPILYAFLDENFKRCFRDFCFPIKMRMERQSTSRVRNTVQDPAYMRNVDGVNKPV
Experiment: biochemical
Assay type: binding, guinea pig
Conditions: read-out: Ki κ1 [^3H]U69,593
Counter-ions that a name gives are not always drawn.
value_kind: Ki

| compound | reading |
| --- | --- |
| c1csc(C2(N3CCCCC3)CCCCC2)c1 [TCP-HCl] | 2040 nM |
| Oc1ccc2c3c1O[C@H]1c4[nH]c5c(c4C[C@@]4(O)[C@@H](C2)N(CC2CC2)CC[C@]314)C[C@@]1(O)[C@H]2Cc3ccc(O)c4c3[C@@]1(CCN2CC1CC1)[C@H]5O4 [Nor-BNI (HCl)2, nor-binaltorphimine] | 0.3 nM |
| C=CCN1CC[C@@]2(C)c3cc(O)ccc3CC1[C@@H]2C.Cl (single isomer, unassigned; (-)) [(−) SKF 10,047-HCl] | 0.3 nM |

* * *

// Guinea Pig Ileum Ke of CTAP lookup, one value per entry
System: mu receptors
Assay type: cell-based, guinea pig

| compound | Guinea Pig Ileum Ke of CTAP |
| --- | --- |
| CC(=O)Oc1ccc2c3c1O[C@H]1[C@@H](OS(=O)(=O)O)C=C[C@H]4[C@@H](C2)N(C)CC[C@@]341 [NIDA # 20,264, 3-O-Acetylmorphine-6-O-sulfate] | 22.73 ± 0.91 |
| Oc1ccc2c3c1O[C@H]1[C@@H](O)C=C[C@H]4[C@@H](C2)NCC[C@@]341 | 50.25 |
| COc1ccc2c3c1O[C@H]1C(=O)CC[C@@]4(O)[C@@H](C2)N(C)CC[C@]314 | 78.66 |
| CN1CC[C@]23c4c5ccc(O)c4O[C@H]2[C@@H](O)CC[C@H]3[C@H]1C5 [Dihydromorphine, 7,8-Dihydromorphine] | 17.46 |
| C[C@@H](NC(=O)[C@@H](N)Cc1ccc(O)cc1)C(=O)NCC(=O)N(C)[C@@H](Cc1ccccc1)C(=O)NCCO [DAMGO, [D-Ala^2,N-Me-Phe^4,Gly-ol^5]-enkephalin] | 25.31 |

* * *

Molecular target: delta receptors (Cavia porcellus, UniProt A0A286XTF2)
Construct: The brains were then homogenized in 50 mM Tris HCl, buffer pH 7.7, using a Polytron; from tissue; host or cells: guinea pig brain homogenate (membrane pellet)
Sequence (A0A286XTF2 1-366): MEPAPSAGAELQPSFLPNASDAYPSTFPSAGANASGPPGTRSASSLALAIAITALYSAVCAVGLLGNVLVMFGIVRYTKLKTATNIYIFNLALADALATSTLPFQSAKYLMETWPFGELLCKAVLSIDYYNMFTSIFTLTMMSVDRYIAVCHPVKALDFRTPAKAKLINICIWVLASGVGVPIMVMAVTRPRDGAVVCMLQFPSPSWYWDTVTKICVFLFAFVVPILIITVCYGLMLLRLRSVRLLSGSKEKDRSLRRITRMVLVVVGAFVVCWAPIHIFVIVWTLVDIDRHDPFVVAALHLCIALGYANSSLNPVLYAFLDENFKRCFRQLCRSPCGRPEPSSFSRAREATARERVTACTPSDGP
Test: biochemical
Assay type: binding, guinea pig
Details: read-out: Ki δ, experiment done with [^3H]DPDPE
Where a name gives a salt, the structure may show the parent alone.
value_kind: Ki (nM)

| compound | cmp | reading |
| --- | --- | --- |
| c1csc(C2(N3CCCCC3)CCCCC2)c1 [TCP-HCl] | > | 10000 |
| CC1C2Cc3ccc(O)cc3C1(C)CCN2CC1CC1 (single isomer, unassigned; (+)) [(+) Cyclazocine] | > | 10000 |
| CCC12CCN(CC3CC3)C(C(=O)c3ccc(O)cc31)C2C (single isomer, unassigned; (+)) [(+)EKC-sulfonate] | = | 2.6 |
| C=CCN1CC[C@@]2(C)c3cc(O)ccc3CC1[C@@H]2C.Cl (single isomer, unassigned; (-)) [(−) SKF 10,047-HCl] | = | 3.8 |

* * *

Biological target: kappa1 sites (Cavia porcellus, UniProt P41144)
Construct: The brains were then homogenized in 50 mM Tris HCl, buffer pH 7.7, using a Polytron; from tissue; host or cells: guinea pig brain homogenate (membrane pellet)
Assay: biochemical
Type: binding, guinea pig
Details: read-out: Ki κ1 [^3H]U69,593
pKi: −log10 of the molar value. Counter-ions that a name gives are not always drawn.
pKi vs 6: at or above is MET, below is NOT MET.

| compound | target | label |
| --- | --- | --- |
| CCCN1CCCC(c2cccc(O)c2)C1 (single isomer, unassigned; (+)) [(+) 3-PPP-HCl] | kappa1 sites (Cavia porcellus, UniProt P41144) | MET |
| c1ccc(C2(N3CCCCC3)CCCCC2)cc1 [PCP-HCl] | kappa1 sites (Cavia porcellus, UniProt P41144) | NOT MET |
| O=C1/C(=C/c2ccccc2)C[C@@]2(O)[C@H]3Cc4ccc(O)c5c4[C@@]2(CCN3CC2CC2)[C@H]1O5 | kappa1 sites (Cavia porcellus, UniProt P41144) | MET |
| Oc1ccc2c3c1O[C@H]1c4oc5ccccc5c4C[C@@]4(O)[C@@H](C2)N(CC2CC2)CC[C@]314 | kappa1 sites (Cavia porcellus, UniProt P41144) | MET |
| CC1C2Cc3ccc(O)cc3C1(C)CCN2CC1CC1 (single isomer, unassigned; (+)) [(+) Cyclazocine] | kappa1 sites (Cavia porcellus, UniProt P41144) | MET |
| C=CCN1CC[C@@]2(C)c3cc(O)ccc3C[C@@H]1[C@@H]2C [(+) SKF 10,047-HCl] | kappa1 sites (Cavia porcellus, UniProt P41144) | NOT MET |
